- TEST_TARGET: T1, Her2 ECD (amino acids 1 to 629 of matured HER2 with C-terminal avi-tag and His-tag) (human, UniProt P04626 23-652)
- T1 construct: also called purified Her2
- PROCEDURE_SUMMARY: SPR, Ab captured, Her2 analyte;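 note: ProteOn XPR36 SPR, rate constants from simultaneous fit of association and dissociation sensorgrams to a 1:1 Langmuir model, buffer-channel referenced, KD taken as koff/kon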
QUANTITY_MEASURED: kon (M⁻¹ s⁻¹)

# BINDER, QUANTITY_MEASURED, UNIT_ABBREVIATION, RESULT_VALUE
data = [
    ("Pertuzumab HC x Pertuzumab (Tras.L3) I31T LC (antibody, V domains shown) VH: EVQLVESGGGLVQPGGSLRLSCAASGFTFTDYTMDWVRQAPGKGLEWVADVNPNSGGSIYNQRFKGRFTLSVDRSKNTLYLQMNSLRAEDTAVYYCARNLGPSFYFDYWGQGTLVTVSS VL: DIQMTQSPSSLSASVGDRVTITCKASQDVSTGVAWYQQKPGKAPKLLIYSASYRYTGVPSRFSGSGSGTDFTLTISSLQPEDFATYYCQQHYTTPPTFGQGTKVEIK", "kon", "M⁻¹ s⁻¹", 431000),
    ("Pertuzumab HC x Pertuzumab (Tras.L3) R54L LC (antibody, V domains shown) VH: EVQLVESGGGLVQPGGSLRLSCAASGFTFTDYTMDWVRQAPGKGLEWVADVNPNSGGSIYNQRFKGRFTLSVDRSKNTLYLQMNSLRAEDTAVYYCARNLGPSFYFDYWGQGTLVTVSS VL: DIQMTQSPSSLSASVGDRVTITCKASQDVSIGVAWYQQKPGKAPKLLIYSASYLYTGVPSRFSGSGSGTDFTLTISSLQPEDFATYYCQQHYTTPPTFGQGTKVEIK", "kon", "M⁻¹ s⁻¹", 464000),
    ("Pertuzumab HC x Pertuzumab (Tras.L3) G32A LC (antibody, V domains shown) VH: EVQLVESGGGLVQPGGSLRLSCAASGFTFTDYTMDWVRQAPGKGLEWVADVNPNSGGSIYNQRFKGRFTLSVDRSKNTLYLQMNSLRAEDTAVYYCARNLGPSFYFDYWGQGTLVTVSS VL: DIQMTQSPSSLSASVGDRVTITCKASQDVSIAVAWYQQKPGKAPKLLIYSASYRYTGVPSRFSGSGSGTDFTLTISSLQPEDFATYYCQQHYTTPPTFGQGTKVEIK", "kon", "M⁻¹ s⁻¹", 511000),
    ("Pertuzumab HC x Pertuzumab (Tras.L3) S30N LC (antibody, V domains shown) VH: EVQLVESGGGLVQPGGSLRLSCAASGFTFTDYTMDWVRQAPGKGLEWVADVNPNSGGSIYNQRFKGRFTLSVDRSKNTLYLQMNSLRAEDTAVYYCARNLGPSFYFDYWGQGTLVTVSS VL: DIQMTQSPSSLSASVGDRVTITCKASQDVNIGVAWYQQKPGKAPKLLIYSASYRYTGVPSRFSGSGSGTDFTLTISSLQPEDFATYYCQQHYTTPPTFGQGTKVEIK", "kon", "M⁻¹ s⁻¹", 530000),
]

Origin of the recorded values: patent US20180291110A1
